# System: CP211
# Experimental Details: qHTS profiling for inhibitors of Plasmodium falciparum proliferation (AID 504749); further: nearly all actives have a fitted effect of over 60% in size
# Condition Set: P. falciparum in erythrocytes, SYBR Green DNA, 72 h; series mostly up to 12.8 µM
Records with an inconclusive call do not appear. The source made the active and inactive calls. The call rests on the fitted dose curve; in most records, active means well fitted inhibition curve with a large enough effect; inconclusive means small, poorly fitted or top-dose-only effect; inactive means flat fitted curve, though single readings scatter.
Labels: active, inactive

molecule=COc1ccc2c(c1)N(C[C@@H](C)CN(C)C)c1ccccc1S2 category_label=inactive
molecule="NCC1CCC(N)C(O[C@@H]2C(O)[C@H](O[C@H]3OC(CO)C(O)C(N)C3O)[C@@H](N)C[C@H]2N)O1 (some centres not stated)" category_label=inactive
molecule=CC=C(/C(=C/C)c1ccc(O)cc1)c1ccc(O)cc1 category_label=inactive
molecule=CC(=O)[C@@]1(O)CC[C@H]2[C@H]3C[C@@H](C)C4=CC(=O)C=C[C@]4(C)[C@@]3(F)[C@@H](O)C[C@]21C category_label=inactive
molecule=C#C[C@]1(O)CC[C@@H]2[C@H]3CCC4=CCCC[C@@H]4[C@@H]3CC[C@@]21C category_label=inactive
molecule=C[C@H](O)Cn1cnc2c1c(=O)n(C)c(=O)n2C category_label=inactive
molecule=O=C1O[C@@H]([C@@H](O)CO)[C@@H](O)[C@H]1O category_label=inactive
molecule=CN1CCO[C@H](c2ccccc2)c2ccccc2C1 category_label=inactive
molecule=CCOC(=O)[C@H](CCc1ccccc1)N[C@@H](C)C(=O)N1[C@H](C(=O)O)C[C@H]2CCC[C@@H]21 category_label=inactive
molecule="CNC1C(OC2C(O[C@@H]3C(O)C(O)[C@@H](N=C(N)N)C(O)C3N=C(N)N)OC(C)[C@@]2(O)CO)OC(CO)C(O)C1O (some centres not stated)" category_label=inactive
molecule="CCC(C)C(=O)OC1CC(O)C=C2C=CC(C)C(CCC(O)CC(O)CC(=O)O)C21 (configuration not stated)" category_label=inactive
molecule=CCO[C@H]1O[C@@H]([C@H](COCc2ccccc2)OCc2ccccc2)[C@@H](OCc2ccccc2)[C@H]1O category_label=inactive
molecule="COC1C=CO[C@@]2(C)Oc3c(C)c(O)c4c(O)c(c5c(nc6cc(C)ccn65)c4c3C2=O)NC(=O)/C(C)=C\\C=CC(C)C(O)[C@@H](C)C(O)C(C)[C@@H](OC(C)=O)C1C (some centres not stated)" category_label=active
molecule=NCc1ccccc1CC(=O)N[C@@H]1C(=O)N2C(C(=O)O)=C(CSc3nnnn3CC(=O)O)CS[C@@H]12 category_label=inactive
molecule=CCCC[C@H](CC)CN1CN(C[C@@H](CC)CCCC)CC(C)(N)C1 category_label=inactive
molecule="CCC(CCC(C)C1CCC2C3CC=C4CC(O)CC[C@@]4(C)C3CC[C@@]12C)C(C)C (some centres not stated)" category_label=inactive
molecule="C=Cc1c(C)/c2[n-]/c1=C\\c1[n-]c(c(CC)c1C)/C=c1\\[n-]c3c(c1C)C(=O)C(C(=O)[O-])C=3c1[n-]c(c(C)c1CCC(=O)[O-])\\C=2.[Cu].[Na+].[Na+] (configuration not stated)" category_label=inactive

---

# Tested on: FAB9
# Experimental Details: qHTS profiling for inhibitors of Plasmodium falciparum proliferation (AID 504749); further: nearly all actives have a fitted effect of over 60% in size
# Condition Set: P. falciparum in erythrocytes, SYBR Green DNA, 72 h; series mostly up to 12.8 µM
Inconclusive results are not listed. Active and inactive are the calls of the source. Calls come from the whole dose curve; as a rule, active = well fitted inhibition curve with a large enough effect; inconclusive = small, poorly fitted or top-dose-only effect; inactive = flat fitted curve, though single readings scatter.
Labels: active, inactive

compound=NC(=O)N[C@H]1NC(=O)NC1=O category_label=inactive
compound="CCC(C)C(=O)OC1CC(O)C=C2C=CC(C)C(CCC(O)CC(O)CC(=O)O)C21 (configuration not stated)" category_label=inactive
compound=CCN(CCCCOC(=O)c1ccc(OC)c(OC)c1)[C@@H](C)Cc1ccc(OC)cc1 category_label=inactive
compound=Cc1ncc([N+](=O)[O-])n1C[C@H](O)CCl category_label=inactive
compound=Cc1cccc(C)c1NC(=O)[C@H](C)N category_label=inactive
compound=CO[C@H]1[C@H](O[C@H]2O[C@@H](C)[C@@H](O[C@@H]3C[C@](C)(O)[C@H](O)[C@H](C)O3)[C@@H](N(C)C)[C@@H]2O)[C@@H](CC=O)C[C@@H](C)[C@@H](O[C@H]2CC[C@H](N(C)C)[C@H](C)O2)/C=C\C=C/C[C@@H](C)OC(=O)C[C@H]1O category_label=inactive
compound="NCC1CCC(N)C(O[C@@H]2C(O)[C@H](O[C@H]3OC(CO)C(O)C(N)C3O)[C@@H](N)C[C@H]2N)O1 (some centres not stated)" category_label=inactive
compound="COc1cc(C2c3cc4c(cc3C(O[C@@H]3OC5COC(c6cccs6)OC5C(O)C3O)C3COC(=O)C23)OCO4)cc(OC)c1O (some centres not stated)" category_label=active
compound=COc1ccc(C[C@@](C)(N)C(=O)O)cc1OC category_label=inactive
compound=CCOC(=O)[C@H](CCc1ccccc1)N[C@@H](C)C(=O)N1[C@H](C(=O)O)C[C@H]2CCC[C@@H]21 category_label=inactive
compound="CO[C@]1(NC(=O)C2SC(=C(C(N)=O)C(=O)O)S2)C(=O)N2C(C(=O)O)=C(CSc3nnnn3C)CS[C@H]21 (some centres not stated)" category_label=inactive
compound=O=C(NC[C@@H](O)CO)c1c(I)c(C(=O)NC[C@@H](O)CO)c(I)c(N(CCO)C(=O)CO)c1I category_label=inactive
compound=C[N+]12CCC(CC1)[C@@H](OC(=O)C(O)(c1ccccc1)c1ccccc1)C2 category_label=inactive
compound=C[C@H]1CC[C@]2(OC1)O[C@@H]1C[C@@H]3[C@@H]4CC[C@H]5C[C@@H](O)CC[C@]5(C)[C@@H]4CC(=O)[C@@]3(C)[C@H]1[C@@H]2C category_label=inactive
compound=CCOC(=O)O[C@@H](C)OC(=O)[C@@H]1N2C(=O)[C@@H](NC(=O)[C@@H](N)c3ccccc3)[C@H]2SC1(C)C category_label=inactive
compound=C[C@@]12CC[C@H]3[C@@H](CCC4=CC(=O)CC[C@]43C)[C@H]1CC[C@H]2C(=O)CO category_label=inactive
compound=O=C(OC[C@@H](O)CO)c1ccccc1Nc1ccnc2cc(Cl)ccc12 category_label=inactive

Data origin, for the record: PubChem BioAssay (NCATS)
